Reported IC50 values follow for various molecules
ASSAYED_SYSTEM: UniProt:P09874
PROTOCOL_SUMMARY: PARP1 biochemical DELFIA assay (auto-PARylation)
MEASUREMENT_CONDITIONS: Table 1A

Consider the reported IC50 for these molecules:
MOLECULE	IC50
O=C(CN1CCCC1c1cc(C(F)(F)F)c(=O)[nH]n1)N1CCN(c2ncc(F)cn2)CC1 (single isomer, unassigned) [Compound 43a]	0.01 to 0.1 µM
CN(c1ncc(C(F)(F)F)cn1)C1CCN(C(=O)CN2CCCC2c2cc(C(F)(F)F)c(=O)[nH]n2)CC1 (single isomer, unassigned) [Compound 107b]	> 10 µM
CNC(=O)c1ccc(N2CCN(C(=O)CN3CCCC3c3cc(C(F)(F)F)c(=O)[nH]n3)CC2)cn1 (single isomer, unassigned) [Compound 37b]	1 to 10 µM
O=C(CN1CCOCC1c1cc(C(F)(F)F)c(=O)[nH]n1)N1CCN(c2ncc(C(F)(F)F)cn2)CC1 (single isomer, unassigned) [Compound 88a]	0.1 to 1 µM
N#Cc1ccc(N2CCN(C(=O)CN3CCCC3c3c[nH]c(=O)c(C(F)(F)F)c3)CC2)nc1 (single isomer, unassigned) [Compound 77b]	0.1 to 1 µM
O=C(CN1CCCCC1c1cc(C(F)(F)F)c(=O)[nH]n1)N1CCN(c2ncc(C(F)(F)F)cn2)CC1 (single isomer, unassigned) [Compound 66b]	> 10 µM

*Q* What value of IC50 has been reported for the following molecule? CNC(=O)c1ccc(N2CCN(C(=O)CCN3CCC3c3cc(C(F)(F)F)c(=O)[nH]n3)CC2)cn1 (single isomer, unassigned) [Compound 56b]
*A* 0.1 to 1 µM

====

Reported pIC50 values follow for various molecules
ASSAYED_SYSTEM: PARP1 (Homo sapiens)
PROTOCOL_SUMMARY: PARP1 biochemical DELFIA assay (auto-PARylation)
MEASUREMENT_CONDITIONS: Table 1
pIC50: −log10 of the molar value.

MOLECULE	MEASURED_ENDPOINT	TEST_VALUE
O=C(CCN1CCN(c2ncc(C(F)(F)F)cn2)CC1)N1CCCC(c2cc(C(F)(F)F)c(=O)[nH]n2)C1 (single isomer, unassigned)	pIC50	6.00 to 7.00
O=C(CCC1CCN(c2ncc(C(F)(F)F)cn2)CC1)N1CCCC(c2cc(C(F)(F)F)c(=O)[nH]n2)C1 (single isomer, unassigned) [Compound 4a]	pIC50	6.00 to 7.00

*Q* What value of pIC50 has been reported for the following molecule? O=C(CCN1CCCCC(c2cc(C(F)(F)F)c(=O)[nH]n2)C1)N1CCN(c2ncc(C(F)(F)F)cn2)CC1 (racemic)
*A* 6.00 to 7.00

====

ASSAYED_SYSTEM: PARP1 (Homo sapiens, UniProt P09874)
Sequence (P09874 whole entry): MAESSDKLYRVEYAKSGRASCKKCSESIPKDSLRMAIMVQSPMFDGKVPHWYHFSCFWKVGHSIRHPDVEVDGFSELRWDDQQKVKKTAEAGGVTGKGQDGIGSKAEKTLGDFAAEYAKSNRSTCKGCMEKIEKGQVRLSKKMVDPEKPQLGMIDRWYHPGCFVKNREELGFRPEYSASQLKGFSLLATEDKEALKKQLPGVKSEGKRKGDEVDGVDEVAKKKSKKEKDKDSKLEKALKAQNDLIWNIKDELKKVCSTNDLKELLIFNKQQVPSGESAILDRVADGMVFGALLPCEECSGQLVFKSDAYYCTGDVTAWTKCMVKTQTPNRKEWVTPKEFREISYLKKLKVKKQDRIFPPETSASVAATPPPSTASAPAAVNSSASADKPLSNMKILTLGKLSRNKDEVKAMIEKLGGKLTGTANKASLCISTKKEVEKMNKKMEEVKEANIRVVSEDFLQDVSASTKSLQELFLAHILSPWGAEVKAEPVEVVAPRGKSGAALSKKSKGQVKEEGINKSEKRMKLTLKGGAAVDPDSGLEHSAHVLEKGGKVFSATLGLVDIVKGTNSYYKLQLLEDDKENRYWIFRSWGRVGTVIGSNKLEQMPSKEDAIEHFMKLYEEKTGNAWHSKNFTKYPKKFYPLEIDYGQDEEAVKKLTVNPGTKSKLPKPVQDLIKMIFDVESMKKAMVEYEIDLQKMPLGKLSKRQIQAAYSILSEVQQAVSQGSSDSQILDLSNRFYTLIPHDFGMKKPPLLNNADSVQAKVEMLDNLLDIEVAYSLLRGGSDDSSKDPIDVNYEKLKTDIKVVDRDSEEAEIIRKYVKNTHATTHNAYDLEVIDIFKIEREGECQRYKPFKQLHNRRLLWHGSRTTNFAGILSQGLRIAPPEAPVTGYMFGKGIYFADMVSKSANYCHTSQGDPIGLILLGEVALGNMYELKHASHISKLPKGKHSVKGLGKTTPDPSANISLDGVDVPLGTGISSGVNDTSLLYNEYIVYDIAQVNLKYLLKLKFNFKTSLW
PROTOCOL_SUMMARY: PARP1 biochemical DELFIA assay (auto-PARylation)
MEASUREMENT_CONDITIONS: Table 1A
pIC50: −log10 of the molar value.
MEASURED_ENDPOINT: pIC50

COMPOUND	pIC50
Cn1c(N2CCN(C(=O)CN3CCCC3c3cc(C(F)(F)F)c(=O)[nH]n3)CC2)nc2ccccc21 (single isomer, unassigned) [Compound 97a]	6.00 to 7.00
N#Cc1ccc(N2CCN(C(=O)CN3CCCC3c3cc(C(F)(F)F)c(=O)[nH]n3)CC2)cc1 (single isomer, unassigned) [Compound 71b]	7.00 to 8.00
N#Cc1cc(C2CCCN2CC(=O)N2CCN(c3nc4cc(Cl)ccc4o3)CC2)n[nH]c1=O (single isomer, unassigned) [Compound 121b]	5.00 to 6.00

*Q* What value of pIC50 on PARP1 (Homo sapiens, UniProt P09874) does O=C(CN1CCCC1c1cc(C(F)(F)F)c(=O)[nH]n1)N1CCN(c2ncc(F)cc2Cl)CC1 (single isomer, unassigned) [Compound 116b] have?
*A* 5.00 to 6.00

*Q* What value of pIC50 on PARP1 (Homo sapiens, UniProt P09874) does O=C(CCN1CC2(c3cc(C(F)(F)F)c(=O)[nH]n3)CC1C2)N1CCN(c2ncc(C(F)(F)F)cn2)CC1 have?
*A* 6.00 to 7.00

*Q* What value of pIC50 on PARP1 (Homo sapiens, UniProt P09874) does O=C(CN1CCCC1c1cc(C(F)(F)F)c(=O)[nH]n1)N1CCN(c2ccc(C3CC3)cn2)CC1 (single isomer, unassigned) [Compound 79a] have?
*A* 7.00 to 8.00

====

ASSAYED_SYSTEM: PARP1 (Homo sapiens, UniProt P09874)
PROTOCOL_SUMMARY: PARP1 biochemical DELFIA assay (auto-PARylation)
MEASUREMENT_CONDITIONS: Table 1A
pIC50: −log10 of the molar value.
MEASURED_ENDPOINT: pIC50

COMPOUND	MEASURED_ENDPOINT	TEST_VALUE
CN(c1ncc(C(F)(F)F)cn1)C1CCN(C(=O)CN2CCCC2c2cc(C(F)(F)F)c(=O)[nH]n2)CC1 (single isomer, unassigned) [Compound 107a]	pIC50	5.00 to 6.00
O=C(CN1CCCC1c1cc(C(F)(F)F)c(=O)[nH]n1)N1CCN(c2ncc(OC(F)F)cn2)CC1 (single isomer, unassigned) [Compound 118b]	pIC50	5.00 to 6.00
N#Cc1cnc(N2CCN(C(=O)CN3CCCC3c3c[nH]c(=O)c(C(F)(F)F)c3)CC2)nc1 (single isomer, unassigned) [Compound 76b]	pIC50	6.00 to 7.00
O=C(CN1CCCC1c1n[nH]c(=O)c2ccccc12)N1CCN(c2ncc(C(F)(F)F)cn2)CC1 (single isomer, unassigned) [Compound 38b]	pIC50	5.00 to 6.00
CNC(=O)c1ccc(N2CCN(C(=O)CCN3CCC(c4n[nH]c(=O)c5ccccc45)CC3)CC2)cn1 [Compound 48]	pIC50	≥ 8.00
O=C(CN1CCCC1c1cc(C2CC2)c(=O)[nH]n1)N1CCN(c2ncc(C(F)(F)F)cn2)CC1 (racemic) [Compound 65rac]	pIC50	7.00 to 8.00
O=C(CN1CCCCC1c1cc(C(F)(F)F)c(=O)[nH]n1)N1CCN(c2ncc(C(F)(F)F)cn2)CC1 (single isomer, unassigned) [Compound 66a]	pIC50	6.00 to 7.00
CNC(=O)c1ccc(N2CCN(C(=O)CN3CCC3c3cc(C(F)(F)F)c(=O)[nH]n3)CC2)cn1 (racemic) [Compound 53rac]	pIC50	6.00 to 7.00

*Q* What value of pIC50 on PARP1 (Homo sapiens, UniProt P09874) does O=C(CN1CCCC1c1cc(C(F)(F)F)c(=O)[nH]n1)N1CCN(c2ncc(C(F)(F)F)s2)CC1 (racemic) [Compound 52rac] have?
*A* ≥ 8.00

====

Reported IC50 values follow for various compounds
ASSAYED_SYSTEM: PARP1 (Homo sapiens, UniProt P09874)
PROTOCOL_SUMMARY: PARP1 biochemical DELFIA assay (auto-PARylation)
MEASUREMENT_CONDITIONS: Table 1A

Consider the reported IC50 for these compounds:
COMPOUND	IC50
CC1(C)CC(c2cc(C(F)(F)F)c(=O)[nH]n2)CN(CCC(=O)N2CCN(c3ncc(C(F)(F)F)cn3)CC2)C1 (single isomer, unassigned) [Compound 87b]	10 to 100 nM
O=C(CN1CCCC1c1cc(C(F)(F)F)c(=O)[nH]n1)N1CCN(c2ncc(F)cc2C(F)(F)F)CC1 (single isomer, unassigned) [Compound 120a]	1000 to 10000 nM
O=C(CN1CCCC1c1cc(C(F)(F)F)c(=O)[nH]n1)N1CCN(c2ncc(F)cc2F)CC1 (single isomer, unassigned) [Compound 83a]	100 to 1000 nM
O=C(CN1CCCC1c1cc(C(F)(F)F)c(=O)[nH]n1)N1CCN(c2ncc(Cl)cn2)CC1 (single isomer, unassigned) [Compound 35a]	10 to 100 nM
Cn1c(N2CCN(C(=O)CN3CCCC3c3cc(C(F)(F)F)c(=O)[nH]n3)CC2)nc2ccc(F)cc21 (single isomer, unassigned) [Compound 119b]	> 10000 nM
O=C(CN1CCCC1c1cc(C(F)(F)F)c(=O)[nH]n1)N1CCN(c2ncc(F)cc2C(F)(F)F)CC1 (single isomer, unassigned) [Compound 120b]	> 10000 nM
O=C(CN1CCCC1c1cc(C(F)(F)F)c(=O)[nH]n1)C1CCN(c2ncc(C(F)(F)F)cn2)CC1 (single isomer, unassigned) [Compound 75b]	> 10000 nM
N#Cc1cc(C2CCCN2CC(=O)N2CCN(c3nc4cc(F)ccc4o3)CC2)n[nH]c1=O (single isomer, unassigned) [Compound 149a]	10 to 100 nM

*Q* What value of IC50 has been reported for the following compound? N#Cc1cnc(N2CCN(C(=O)CN3CCCC3c3c[nH]c(=O)c(C(F)(F)F)c3)CC2)nc1 (single isomer, unassigned) [Compound 76a]
*A* 1000 to 10000 nM

*Q* What value of IC50 has been reported for the following compound? N#Cc1cc(C2CCCN2CC(=O)N2CCN(c3nc4ccc(F)cc4o3)CC2)n[nH]c1=O (single isomer, unassigned) [Compound 111a]
*A* 10 to 100 nM

*Q* What value of IC50 has been reported for the following compound? N#Cc1ccc2oc(N3CCN(C(=O)CN4CCCC4c4cc(C(F)(F)F)c(=O)[nH]n4)CC3)nc2c1 (single isomer, unassigned) [Compound 100b]
*A* 100 to 1000 nM

*Q* What value of IC50 has been reported for the following compound? N#Cc1ccc2oc(N3CCN(C(=O)CN4CCCC4c4cc(C(F)(F)F)c(=O)[nH]n4)CC3)nc2c1 (single isomer, unassigned) [Compound 100a]
*A* 10 to 100 nM

*Q* What value of IC50 has been reported for the following compound? N#Cc1ccc(N2CCN(C(=O)CN3CCCC3c3cc(C(F)(F)F)c(=O)[nH]n3)CC2)nc1 (racemic) [Compound 47rac]
*A* 10 to 100 nM

*Q* What value of IC50 has been reported for the following compound? CNC(=O)c1cnc(N2CCN(C(=O)CN3CCCC3c3cc(C(F)(F)F)c(=O)[nH]n3)CC2)cn1 (single isomer, unassigned) [Compound 54a]
*A* 100 to 1000 nM

*Q* What value of IC50 has been reported for the following compound? N#Cc1cc(C2CCCN2CC(=O)N2CCN(c3ncc(C(F)(F)F)cn3)CC2)n[nH]c1=O (single isomer, unassigned) [Compound 98b]
*A* 1000 to 10000 nM

*Q* What value of IC50 has been reported for the following compound? O=C(CN1CCCC1c1cc(C(F)(F)F)c(=O)[nH]n1)N1CCN(c2ncc(Cl)cn2)CC1 (single isomer, unassigned) [Compound 35b]
*A* 1000 to 10000 nM

*Q* What value of IC50 has been reported for the following compound? O=C(CCN1CCC(c2cc(C(F)(F)F)c(=O)[nH]n2)CC1)N1CCN(c2ncc(C(F)(F)F)cn2)CC1 [Compound 61]
*A* 100 to 1000 nM

*Q* What value of IC50 has been reported for the following compound? O=C(CN1Cc2ccccc2C1c1cc(C(F)(F)F)c(=O)[nH]n1)N1CCN(c2ncc(C(F)(F)F)cn2)CC1 (single isomer, unassigned) [Compound 104a]
*A* 100 to 1000 nM

*Q* What value of IC50 has been reported for the following compound? CC1(C)CC(c2cc(C(F)(F)F)c(=O)[nH]n2)N(CC(=O)N2CCN(c3ncc(C(F)(F)F)cn3)CC2)C1 (single isomer, unassigned) [Compound 94b]
*A* 1000 to 10000 nM
